pIC50, SARS-CoV-2 Main Protease (SARS-CoV-2), per-entry values.
Units for pIC50: none; it is -log10 of a concentration expressed in mol/L.

>  <compound>
O=C(CCl)N1CCN(S(=O)(=O)c2ccsc2)[C@H](C(=O)N2CCOCC2)C1 (stereo in doubt)

>  <pIC50>
5.54

$$$$

Please find the next compound below.
Ask | Request - read-out pIC50 | tested on SARS-CoV-2 Main Protease (SARS-CoV-2) | compound CN1CCN(C2CCN(c3cc(Cl)cc(CC(=O)Nc4cncc5ccccc45)c3)CC2)CC1
Reply | 5.34

###

List of pIC50 tested on SARS-CoV-2 Main Protease (SARS-CoV-2).
When answering, recall that pIC50 equals minus log10 of the concentration in mol/L, and write that number alone.

>  <compound>
CC(C)(C(N)=O)c1ccc(N(Cc2ccsc2)C(=O)Cn2nnc3ccccc32)cc1

>  <pIC50>
5.50

$$$$
>  <compound>
N#Cc1ccc(CN2CCC(C3CCNC3)CC2)cc1 (centres undefined)

>  <pIC50>
5.69

$$$$
>  <compound>
O=C(CN1CC(C(=O)Nc2cncc3cc(F)ccc23)c2cc(Cl)ccc2C1=O)NCC(F)(F)F (centres undefined)

>  <pIC50>
6.06

$$$$
>  <compound>
NS(=O)(=O)c1n[nH]cc1C(=O)NC[C@@]1(C(=O)Nc2cncc3ccccc23)CCOc2ccc(Cl)cc21 (stereo in doubt)

>  <pIC50>
5.70

$$$$
>  <compound>
CNC(=O)c1ccc2cncc(NC(=O)C3CN(S(=O)(=O)CC4(C)CS(=O)(=O)C4)Cc4ccc(Cl)cc43)c2c1 (centres undefined)

>  <pIC50>
6.96

$$$$

Moving on to the next compound.
Ask | Any idea what its pIC50 is? The compound is COc1cccc2[nH]c(=O)cc(C(=O)N3CCN(c4cccc(Cl)c4)CC3)c12
Reply | 5.33
